// data source = ChEMBL document CHEMBL1811758

Documented IC50 across a set of compounds
# assayed_target: Amine oxidase [flavin-containing] A (Homo sapiens)
# Sequence (P21397 whole entry): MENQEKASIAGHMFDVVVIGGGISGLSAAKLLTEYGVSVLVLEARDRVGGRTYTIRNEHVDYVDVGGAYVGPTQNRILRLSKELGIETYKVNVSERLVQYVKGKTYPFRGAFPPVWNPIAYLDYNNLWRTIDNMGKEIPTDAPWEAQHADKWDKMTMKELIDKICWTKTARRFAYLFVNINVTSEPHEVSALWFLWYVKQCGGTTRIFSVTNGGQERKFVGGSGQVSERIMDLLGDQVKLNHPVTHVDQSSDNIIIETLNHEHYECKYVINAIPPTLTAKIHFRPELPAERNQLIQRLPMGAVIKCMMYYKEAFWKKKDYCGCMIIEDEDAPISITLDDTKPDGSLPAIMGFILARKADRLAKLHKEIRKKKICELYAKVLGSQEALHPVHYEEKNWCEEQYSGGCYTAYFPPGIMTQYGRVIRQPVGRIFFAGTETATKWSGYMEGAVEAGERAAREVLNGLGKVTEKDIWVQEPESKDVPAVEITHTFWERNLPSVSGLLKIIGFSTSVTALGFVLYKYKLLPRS
# assay_text: Inhibition of human recombinant MAOA expressed in insect cells using kynuramine substrate by fluorescence spectroscopy
Response body: numeric value in nM, unit text excluded.

Worked cases, answers included:
O=C1NC(=O)c2cc(Oc3ccccc3)ccc21 :: 5850
O=C1NC(=O)c2cc(OCCCc3ccccc3)ccc21 :: 1730
O=C1NC(=O)c2cc(Oc3ccc4ccccc4c3)ccc21 :: 920
O=C1NC(=O)c2cc(OC/C=C/c3ccccc3)ccc21 :: 8990

Moving on to the next compound.
input: Using the record for O=C1NC(=O)c2cc(Oc3ccc(Br)cc3)ccc21 , report its IC50.
output: 1080
